# Test system: HSV-1
# Method summary: Plaque reduction assay, HSV-1 clinical isolates on Vero cells
# Type: cell-based
# Run parameters: Human alphaherpesvirus 1, Vero, isolate HPG035, HSV-1 pol S239L (716C>T); also pol S724N; read-out: Drug susceptibility Foscarnet (FOS)
pIC50: −log10 of the molar value.
Measured property: pIC50

Exercise: Provide only the value of recorded pIC50 for O=C(O)P(=O)(O)O
Solution: < 3.40

* * *

# Test system: HSV-1
# Method summary: Plaque reduction assay, HSV-1 clinical isolates on Vero cells
# Assay type: cell-based
# Run parameters: Human alphaherpesvirus 1, Vero, read-out: Drug susceptibility Aciclovir (ACV), isolate HPG039, HSV-1 TK 85* or H58fs (169delC, 170delC, 171delC, or 172delC)
Measured property: IC50

Exercise: Provide only the value of recorded IC50 for Nc1nc2c(ncn2COCCO)c(=O)[nH]1
Solution: 3 to 40 µM

* * *

# System: HSV-1
# Method summary: Plaque reduction assay, HSV-1 clinical isolates on Vero cells
# Assay type: cell-based
# Run parameters: Human alphaherpesvirus 1, Vero, read-out: Drug susceptibility Cidofovir (CDV), isolate HPG042, HSV-1 TK frameshift (881delC to 885delC)
Measured property: IC50

Exercise: Provide only the value of recorded IC50 for Nc1ccn(C[C@@H](CO)OCP(=O)(O)O)c(=O)n1
Solution: < 24 µM

* * *

# Tested on: HSV-1
# Method summary: Plaque reduction assay, HSV-1 clinical isolates on Vero cells
# Format: cell-based
# Run parameters: Human alphaherpesvirus 1, Vero, isolate HPG035, HSV-1 pol S239L (716C>T); also pol S724N; read-out: Drug susceptibility Cidofovir (CDV)
# Source text: Viral isolates were used to infect a sub-confluent monolayer of Vero cells at a concentration of 75 or 50 plaque forming units (PFU) per well for HSV-1 and HSV-2, respectively. […] CMC medium typically used to create a semisolid interface and prevents indiscrimate viral spreading. Other materials (e.g. agar) may also be used to create this interface. […]
Measured property: IC50

Exercise: Provide only the value of recorded IC50 for Nc1ccn(C[C@@H](CO)OCP(=O)(O)O)c(=O)n1
Solution: > 30 µM

* * *

# Tested on: HSV-1
# Method summary: Plaque reduction assay, HSV-1 clinical isolates on Vero cells
# Type: cell-based
# Run parameters: Human alphaherpesvirus 1, Vero, isolate HPG039, HSV-1 TK 85* or H58fs (169delC, 170delC, 171delC, or 172delC); read-out: Drug susceptibility Penciclovir (PCV)
pIC50: −log10 of the molar value.
Measured property: pIC50

Exercise: Enter pIC50 (test system HSV-1) for Nc1nc2c(ncn2CCC(CO)CO)c(=O)[nH]1
Solution: < 4.40

* * *

# System: HSV-1
# Method summary: Plaque reduction assay, HSV-1 clinical isolates on Vero cells
# Format: cell-based
# Run parameters: Human alphaherpesvirus 1, Vero, read-out: Drug susceptibility Aciclovir (ACV), isolate HPG037, HSV-1 TK R256W (766C>T)
Measured property: IC50

Exercise: Provide only the value of recorded IC50 for Nc1nc2c(ncn2COCCO)c(=O)[nH]1 [Aciclovir, acyclovir]
Solution: 3 to 40 µM

* * *

# Test system: HSV-1
# Method summary: Plaque reduction assay, HSV-1 clinical isolates on Vero cells
# Type: cell-based
# Run parameters: Human alphaherpesvirus 1, Vero, read-out: Drug susceptibility Penciclovir (PCV), isolate HPG016, HSV-1 pol A1169T (3505G>A)
# From the text: Viral isolates were used to infect a sub-confluent monolayer of Vero cells at a concentration of 75 or 50 plaque forming units (PFU) per well for HSV-1 and HSV-2, respectively. […] CMC medium typically used to create a semisolid interface and prevents indiscrimate viral spreading. Other materials (e.g. agar) may also be used to create this interface. […]
pIC50: −log10 of the molar value.
Measured property: pIC50

Exercise: Provide only the value of recorded pIC50 for Nc1nc2c(ncn2CCC(CO)CO)c(=O)[nH]1 [Penciclovir, penciclovir]
Solution: > 5.00

* * *

pIC50 values for the molecules below.
# System: HSV-2
# Method summary: Plaque reduction assay, HSV-2 clinical isolates on Vero cells
# Type: cell-based
# Run parameters: Human alphaherpesvirus 2, Vero, isolate HPG028, HSV-2 TK 98stop or A94fs (276delG, 278delG, 279delG, or 280delG); read-out: Drug susceptibility (IC50 value)
pIC50: −log10 of the molar value.

Here are 2 molecules together with their reported answers.
{"Line notation": "Nc1nc2c(ncn2COCCO)c(=O)[nH]1", "Target entity": "HSV-2", "Reported": "< 4.40"}
{"Line notation": "O=C(O)P(=O)(O)O", "Target entity": "HSV-2", "Reported": 4.01}

In the following, a different molecule is considered.
Exercise: Provide only the value of recorded pIC50 for Nc1nc2c(ncn2CCC(CO)CO)c(=O)[nH]1
Solution: < 3.80

* * *

# Test system: HSV-1
# Method summary: Plaque reduction assay, HSV-1 clinical isolates on Vero cells
# Format: cell-based
# Run parameters: Human alphaherpesvirus 1, Vero, isolate HPG027, HSV-1 pol S914L (2741C>T); also TK V204G, pol A1169T; read-out: Drug susceptibility (IC50 value)
IC50 values for the molecules below.
Only the number, expressed in µM, is required.

{"Molecule": "O=C(O)P(=O)(O)O [Foscarnet, foscarnet]", "Target entity": "HSV-1", "IC50 [µM]": 216}

In the following, a different molecule is considered.
Exercise: Provide only the value of recorded IC50 for Nc1ccn(C[C@@H](CO)OCP(=O)(O)O)c(=O)n1 [Cidofovir, cidofovir]
Solution: 3.93

* * *

# System: HSV-1
# Method summary: Plaque reduction assay, HSV-1 clinical isolates on Vero cells
# Type: cell-based
# Run parameters: Human alphaherpesvirus 1, Vero, isolate HPG010, HSV-1 TK Q125* (373C>T); read-out: Drug susceptibility Foscarnet (FOS)
Measured property: IC50

Exercise: Provide only the value of recorded IC50 for O=C(O)P(=O)(O)O
Solution: < 250 µM

* * *

# System: HSV-1
# Method summary: Plaque reduction assay, HSV-1 clinical isolates on Vero cells
# Assay type: cell-based
# Run parameters: Human alphaherpesvirus 1, Vero, isolate HPG053, HSV-1 pol L802R + A834S (2405T>G, 2500G>T); also TK R176W; read-out: Drug susceptibility Cidofovir (CDV)
Measured property: IC50

Exercise: Enter IC50 (test system HSV-1) for Nc1ccn(C[C@@H](CO)OCP(=O)(O)O)c(=O)n1
Solution: < 24 µM

* * *

# System: HSV-1
# Method summary: Plaque reduction assay, HSV-1 clinical isolates on Vero cells
# Assay type: cell-based
# Run parameters: Human alphaherpesvirus 1, Vero, read-out: Drug susceptibility Aciclovir (ACV), isolate HPG037, HSV-1 TK L69M (205>A); also TK Y239H
Measured property: IC50

Exercise: Provide only the value of recorded IC50 for Nc1nc2c(ncn2COCCO)c(=O)[nH]1
Solution: 3 to 40 µM

* * *

# Tested on: HSV-1
# Method summary: Plaque reduction assay, HSV-1 clinical isolates on Vero cells
# Type: cell-based
# Run parameters: Human alphaherpesvirus 1, Vero, read-out: Drug susceptibility Aciclovir (ACV), isolate HPG014, HSV-1 pol T54A (160A>G)
Measured property: IC50

Exercise: Provide only the value of recorded IC50 for Nc1nc2c(ncn2COCCO)c(=O)[nH]1
Solution: < 3 µM

* * *

# System: HSV-1
# Method summary: Plaque reduction assay, HSV-1 clinical isolates on Vero cells
# Assay type: cell-based
# Run parameters: Human alphaherpesvirus 1, Vero, read-out: Drug susceptibility (IC50 value), isolate HPG005, HSV-1 TK A192T (574G>A)
IC50 values for the molecules below.
Only the number, expressed in nM, is required.

Here are 2 molecules together with their reported answers.
{"Line notation": "Nc1ccn(C[C@@H](CO)OCP(=O)(O)O)c(=O)n1", "IC50 [nM]": 2210}
{"Line notation": "Nc1nc2c(ncn2COCCO)c(=O)[nH]1", "IC50 [nM]": 1460}

Exercise: Provide only the value of recorded IC50 for Nc1nc2c(ncn2CCC(CO)CO)c(=O)[nH]1
Solution: 5190

* * *

# Test system: HSV-1
# Method summary: Plaque reduction assay, HSV-1 clinical isolates on Vero cells
# Format: cell-based
# Run parameters: Human alphaherpesvirus 1, Vero, isolate HPG015, HSV-1 pol 966stop or F965_I966insF (2892_2893insT to 2895_2896insT); read-out: Drug susceptibility Penciclovir (PCV)
Measured property: IC50

Exercise: Provide only the value of recorded IC50 for Nc1nc2c(ncn2CCC(CO)CO)c(=O)[nH]1
Solution: < 10 µM

* * *

IC50 values for the molecules below.
# System: HSV-1
# Method summary: Plaque reduction assay, HSV-1 clinical isolates on Vero cells
# Assay type: cell-based
# Run parameters: Human alphaherpesvirus 1, Vero, isolate HPG037, HSV-1 TK R256W (766C>T); read-out: Drug susceptibility (IC50 value)

Here are 3 molecules together with their reported answers.
{"Line notation": "Nc1nc2c(ncn2COCCO)c(=O)[nH]1", "Target entity": "HSV-1", "IC50": "24.8 µM"}
{"Line notation": "Nc1ccn(C[C@@H](CO)OCP(=O)(O)O)c(=O)n1", "Target entity": "HSV-1", "IC50": "4.39 µM"}
{"Line notation": "Nc1nc2c(ncn2CCC(CO)CO)c(=O)[nH]1", "Target entity": "HSV-1", "IC50": "> 160 µM"}

In the following, a different molecule is considered.
Exercise: Provide only the value of recorded IC50 for O=C(O)P(=O)(O)O
Solution: 80 µM
